target: recombinant GSK3β kinase (Homo sapiens (Human)); assay: GSK3β kinase assay (Ser/Thr 09 peptide Z-lyte, FRET); type: biochemical; settings: GSK3β kinase; head says EC50, method says IC50; ATP 46 μM;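 also: FRET read-out as coumarin over fluorescein emission ratio, compounds incubated one hour at room temperature, IC50 from dose-response curve fit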
Sequence (P49841 whole entry): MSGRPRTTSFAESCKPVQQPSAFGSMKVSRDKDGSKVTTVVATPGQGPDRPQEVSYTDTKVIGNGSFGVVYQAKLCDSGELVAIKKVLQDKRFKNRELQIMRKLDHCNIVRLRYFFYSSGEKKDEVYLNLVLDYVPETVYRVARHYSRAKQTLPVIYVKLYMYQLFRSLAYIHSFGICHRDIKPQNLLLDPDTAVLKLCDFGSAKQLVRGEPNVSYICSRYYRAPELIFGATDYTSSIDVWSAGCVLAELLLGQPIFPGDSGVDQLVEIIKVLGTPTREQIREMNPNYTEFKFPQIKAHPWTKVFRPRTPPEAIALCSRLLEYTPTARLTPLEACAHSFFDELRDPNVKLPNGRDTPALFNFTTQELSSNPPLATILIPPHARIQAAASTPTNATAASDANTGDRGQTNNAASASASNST
pEC50: −log10 of the molar value.
measured-property: pEC50

// solved cases for pEC50 follow
O=C(Nc1cc2cc(-c3cncc(NC4CCNCC4)n3)ccc2cn1)c1ccc(F)cc1 5.36
CN1CCC(Nc2cncc(-c3ccc4cnc(NC(=O)c5ccc(F)cc5)cc4c3)c2)CC1 5.15

(A) CC(C)Nc1cncc(-c2ccc3cnc(NC(=O)c4cccc(C5CCN(C)CC5)c4)cc3c2)n1
(B) CC(C)Nc1cncc(-c2ccc3cnc(NC(=O)c4cn(C5CCNCC5)nn4)cc3c2)n1
(C) CN1CCN(Cc2cncc(-c3ccc4cnc(NC(=O)C5CC5)cc4c3)c2)CC1
Prompt: Sort entries by pEC50 from minimum to maximum value. Thanks in advance for listing the labels in the requested order.
Completion: A, B, C
